# target_under_test: Yer184c (UniProt P39961)
# Sequence: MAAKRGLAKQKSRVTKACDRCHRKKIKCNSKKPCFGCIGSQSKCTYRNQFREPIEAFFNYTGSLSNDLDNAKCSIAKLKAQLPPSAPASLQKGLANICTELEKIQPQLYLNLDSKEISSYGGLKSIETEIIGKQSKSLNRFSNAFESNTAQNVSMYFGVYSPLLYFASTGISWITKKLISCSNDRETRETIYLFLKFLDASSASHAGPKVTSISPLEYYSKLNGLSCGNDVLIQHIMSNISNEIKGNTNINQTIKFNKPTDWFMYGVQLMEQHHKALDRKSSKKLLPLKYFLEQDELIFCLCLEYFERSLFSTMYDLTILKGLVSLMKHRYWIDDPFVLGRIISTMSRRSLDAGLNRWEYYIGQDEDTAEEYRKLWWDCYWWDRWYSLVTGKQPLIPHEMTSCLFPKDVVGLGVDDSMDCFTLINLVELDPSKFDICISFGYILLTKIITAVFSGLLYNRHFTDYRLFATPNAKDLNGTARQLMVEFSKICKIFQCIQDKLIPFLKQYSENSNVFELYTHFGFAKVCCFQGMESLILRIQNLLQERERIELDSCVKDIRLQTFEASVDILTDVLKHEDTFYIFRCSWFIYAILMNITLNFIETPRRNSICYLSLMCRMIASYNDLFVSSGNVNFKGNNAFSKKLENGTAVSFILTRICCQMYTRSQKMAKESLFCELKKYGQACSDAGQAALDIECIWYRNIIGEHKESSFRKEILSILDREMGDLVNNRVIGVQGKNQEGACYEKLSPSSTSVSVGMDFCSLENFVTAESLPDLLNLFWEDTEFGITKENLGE
# procedure_text: PBM E-score (8-mer binding enrichment) (E-score (-0.5 to 0.5)); higher = stronger / more preferred TF binding
# test_settings: protein concentration: 100 nM; construct: GST-full length
Whole data set: some 33,000 sequences, median “E-score (-0.5 to 0.5)” near -0.016, cut for the highest 2% near 0.3. Only a selection was taken, and the highest values are over-represented in it overall.
Listing of entries alongside the reported PBM E-score.
Reply briefly: the number, and no unit.

- seq_text: "AGAGGGGA"
  target_under_test: "Yer184c (UniProt P39961)"
  PBM E-score: -0.286
- seq_text: "GCTTCGCA"
  target_under_test: "Yer184c (UniProt P39961)"
  PBM E-score: -0.163
- seq_text: "TACCGAAA"
  target_under_test: "Yer184c (UniProt P39961)"
  PBM E-score: 0.204
- seq_text: "GCTTCGGA"
  target_under_test: "Yer184c (UniProt P39961)"
  PBM E-score: 0.304
- seq_text: "GAACCTCC"
  target_under_test: "Yer184c (UniProt P39961)"
  PBM E-score: -0.0558
- seq_text: "CATAATAA"
  target_under_test: "Yer184c (UniProt P39961)"
  PBM E-score: 0.0808
- seq_text: "CAATATTA"
  target_under_test: "Yer184c (UniProt P39961)"
  PBM E-score: 0.133
- seq_text: "ACTTCGGC"
  target_under_test: "Yer184c (UniProt P39961)"
  PBM E-score: 0.269
- seq_text: "GATAAAAC"
  target_under_test: "Yer184c (UniProt P39961)"
  PBM E-score: 0.305
- seq_text: "CGAGCTCG"
  target_under_test: "Yer184c (UniProt P39961)"
  PBM E-score: 0.308

INPUT: Retrieve PBM E-score measured for CCACTAAA and print it.
OUTPUT: -0.0267

INPUT: Retrieve PBM E-score measured for ACTTCGGG and print it.
OUTPUT: 0.0741

INPUT: Retrieve PBM E-score measured for CTGCCTCC and print it.
OUTPUT: -0.339
